Each entry below lists one item and its recorded inhibition value.
test: LFS_MB_P medulloblastoma growth inhibition, cell-based, chromothripsis tumors, cisplatin or BGB combos (AID 1671449); settings: LFS_MB_P medulloblastoma cells, measured here: combination with cisplatin, at 5 µM, stronger effect = higher value;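 also: cells exposed for 96 hours; 0% = vehicle DMSO and 100% = killing by high DMSO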
Just the number in %, nothing appended.

Field: example entries. Status: answers known.
In [3]: df
Out[3]:
                                   compound  quantity_kind  observed_value
0  C[C@@H](CN1CC(=O)NC(=O)C1)N1CC(=O)NC(=O)C1     inhibition           -14.8
1  CN(N=O)C(=O)NC1C(O)OC(CO)C(O)C1O (centres undefined)     inhibition             -15
2                      N=C(N=C(N)N)N1CCOCC1     inhibition           -1.14

Next compound, inhibition to be filled in.
[ask] Recorded inhibition for `CCOC(=O)Nc1ccc(NCc2ccc(F)cc2)nc1N` , please?
[reply] -32.9

* * *

test: HDN33 neuroblastoma growth inhibition, cell-based, chromothripsis tumors, cisplatin or BGB combos (AID 1671450); settings: HDN33 neuroblastoma cells, cisplatin combo, at 5 µM, stronger effect = higher value;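 also: cells exposed to compound for four days; 0% = vehicle DMSO and 100% = cell killing by high DMSO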
Each entry below lists one item and its recorded inhibition value.
Just the number in %, nothing appended.

Field: example entries. Status: answers known.
In [3]: df
Out[3]:
                                   molecule  units  observed_value
0   O=c1c(O)c(-c2ccc(O)c(O)c2)oc2cc(O)ccc12      %            3.02
1  CN(N=O)C(=O)NC1C(O)OC(CO)C(O)C1O (centres undefined)      %           -31.9
2  CNC1CCCN(c2c(F)cc3c(=O)c(C(=O)O)cn(C4CC4)c3c2OC)C1 (centres undefined)      %           -60.5

[ask] Recorded inhibition for COC1C(OC(N)=O)C(O)C(Oc2ccc3c(O)c(NC(=O)c4ccc(O)c(CC=C(C)C)c4)c(=O)oc3c2C)OC1(C)C (centres undefined) , please?
[reply] 0.721

* * *

test: differential killing of epithelial or mesenchymal cells, primary screen, imaging, PC-3E GFP, TEM4-18 mCherry, co-culture (AID 1345086); details: imaging cell counts, measured here: mesenchymal TEM4-18 mCherry cell survival, at 1 µM;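 also: cells exposed to compound for 72 h before imaging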
Peptide text beside a SMILES is read from it.
QUANTITY_KIND: normalised cell number
Output spec: single numeric token, no unit.

Field: example entries. Status: answers known.
COMPOUND	QUANTITY_KIND	OBSERVED_VALUE
O=C1CN(/N=C/c2ccc([N+](=O)[O-])o2)C(=O)N1	normalised cell number	1.05
O=c1c2ccccc2oc2ccccc12	normalised cell number	1.06
CC(C(=O)O)c1ccc2c(c1)Cc1cccnc1O2 (stereo not drawn)	normalised cell number	0.9
Cc1ncc(CSSCc2cnc(C)c(O)c2CO)c(CO)c1O	normalised cell number	0.92
CC(C)c1ccc2c(c1)CCC1[C@](C)(CN)CCC[C@]21C (stereo partly drawn)	normalised cell number	0.83

[ask] Recorded normalised cell number for C=CC1=C(C(=O)O)N2C(=O)[C@@H](NC(=O)/C(=N\O)c3csc(N)n3)[C@H]2SC1 (stereo in doubt) , please?
[reply] 1.04

[ask] Another compound to look at: `COc1ccc(/C=C/C(=O)Nc2ccccc2C(=O)O)cc1OC`
[reply] 0.98

[ask] Another compound to look at: `COc1ccc(C(=O)c2ccc(O)cc2)c(O)c1O`
[reply] 0.89

[ask] Another compound to look at: CC(C)=CCCC1(C)C=Cc2c(O)c3c(c(CC=C(C)C)c2O1)OC12C(=CCCC1C(C)(C)O[C@@]2(C/C=C(\C)C(=O)O)C(=O)O)C3=O (stereo partly drawn)
[reply] 1.08

[ask] Another compound to look at: CC(=O)N[C@@H](CC(=O)O)C(=O)N[C@@H](CCC(=O)O)C(=O)O (Ac-Asp-Glu-OH)
[reply] 1.01
